measurement target: HA of ca A/Brit. Columbia/CN-6/04 (H7N3-LP) virus (influenza A virus)
test details: cell-based or functional assay
For each entry below, report its Neutralization IC50, H7-BC04 value.
Your answer should be a number followed by the unit of measure.

input: Sample Antibody 8 (antibody, V domains shown) VH: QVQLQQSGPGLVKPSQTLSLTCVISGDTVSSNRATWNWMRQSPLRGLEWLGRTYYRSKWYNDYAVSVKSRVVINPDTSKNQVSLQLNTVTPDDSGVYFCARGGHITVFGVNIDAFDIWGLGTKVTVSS VL: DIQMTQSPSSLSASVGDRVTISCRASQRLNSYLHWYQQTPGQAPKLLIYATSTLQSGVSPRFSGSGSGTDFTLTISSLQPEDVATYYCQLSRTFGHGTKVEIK — what was its Neutralization IC50, H7-BC04?
output: 14.7 µg/mL

input: Sample Antibody 3 (antibody, V domains shown) VH: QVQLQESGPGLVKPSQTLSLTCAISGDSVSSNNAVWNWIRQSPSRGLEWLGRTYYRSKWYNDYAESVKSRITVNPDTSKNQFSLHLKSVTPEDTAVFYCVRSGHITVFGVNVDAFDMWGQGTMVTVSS VL: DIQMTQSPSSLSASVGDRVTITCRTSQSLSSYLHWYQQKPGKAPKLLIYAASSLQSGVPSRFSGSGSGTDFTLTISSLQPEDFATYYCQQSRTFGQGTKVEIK — what was its Neutralization IC50, H7-BC04?
output: 4.72 µg/mL
